Biological target: Sm (Smith antigen)
Assay: AtheNA, Ab 25 ug/ml
We begin with a simple list: items and their reported Athena reading (relative luminescence units).
endpoint label: Athena reading (relative luminescence units)

binder: CH236_4A/293i (antibody, from a related filing, V domains shown) VH: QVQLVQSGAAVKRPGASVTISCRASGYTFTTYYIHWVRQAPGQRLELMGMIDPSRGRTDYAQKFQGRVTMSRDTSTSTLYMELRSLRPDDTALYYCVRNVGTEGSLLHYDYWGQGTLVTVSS VL: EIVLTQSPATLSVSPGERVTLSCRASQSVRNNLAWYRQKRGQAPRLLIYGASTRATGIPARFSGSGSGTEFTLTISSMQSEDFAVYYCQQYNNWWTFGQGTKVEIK
number: 165

binder: CH240_4A/293i (antibody, from a related filing, V domains shown) VH: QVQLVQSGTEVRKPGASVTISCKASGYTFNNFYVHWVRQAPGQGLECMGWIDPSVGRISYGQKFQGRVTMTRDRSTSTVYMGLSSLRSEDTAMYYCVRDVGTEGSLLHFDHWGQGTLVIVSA VL: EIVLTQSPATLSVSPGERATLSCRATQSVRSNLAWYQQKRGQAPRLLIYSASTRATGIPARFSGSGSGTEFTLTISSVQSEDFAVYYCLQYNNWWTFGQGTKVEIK
number: 22

binder: CH241 (antibody, from a related filing, V domains shown) VH: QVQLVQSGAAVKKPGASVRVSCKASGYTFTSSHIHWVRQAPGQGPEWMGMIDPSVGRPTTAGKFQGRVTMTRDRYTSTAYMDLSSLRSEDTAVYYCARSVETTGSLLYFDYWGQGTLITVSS VL: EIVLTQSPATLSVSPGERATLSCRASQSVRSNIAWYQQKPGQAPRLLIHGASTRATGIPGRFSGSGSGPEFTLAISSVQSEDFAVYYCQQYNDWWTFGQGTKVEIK
number: 11

binder: CH239_4A/293i (antibody, from a related filing, V domains shown) VH: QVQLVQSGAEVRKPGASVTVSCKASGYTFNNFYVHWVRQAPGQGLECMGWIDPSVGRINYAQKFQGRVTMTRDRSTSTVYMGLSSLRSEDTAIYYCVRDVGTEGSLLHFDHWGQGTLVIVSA VL: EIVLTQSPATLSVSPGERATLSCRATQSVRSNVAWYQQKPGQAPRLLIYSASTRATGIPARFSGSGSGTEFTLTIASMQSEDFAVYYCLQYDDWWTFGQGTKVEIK
number: 237
